target-entity: T1, human glycophorin A on human red blood cells or red blood cell membranes (human, UniProt P02724 20-150)
T1 construct: whole, on cells; also called hRBC; human RBC membranes
T1 sequence (looked up): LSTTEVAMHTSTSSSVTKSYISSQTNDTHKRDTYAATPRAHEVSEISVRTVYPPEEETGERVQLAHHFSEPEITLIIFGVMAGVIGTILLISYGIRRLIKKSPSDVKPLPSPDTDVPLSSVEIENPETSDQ
experiment-notes: SPR (Biacore), Fab on human RBC membranes; * not accurate, instrument limit
attribute-measured: pKd
One number for each entry, as −log10 of the molar value.

I would be grateful if you could share the reported pKd for TPP-7783, affinity matured 6C12 Fab (Fab, V domains shown, Tested as Fab) VH: EVQLVQSGAEVKKPGASVKVSCKASGYTFTTYAIHWVRQAPGQGLEWMGYINPSSGYTRYNPKFKHRVTMTRDKSTSTAYMELRSLRSDDTAVYYCWTGTRDYWGQGTTVTVSS VL: DIQLTQSPSFLSASVGDRVTITCRASSSVRYIYWFQQKPGKAPKLLIYATSFRRSGVPSRFSGSGSGTEYTLTISSLQPEDFATYYCHQRNSFPYTFGQGTKLEIK . 12.04
